Source listed as ChEMBL document CHEMBL3044739.

experiment_description: Cytotoxicity against Homo sapiens (human) HuCCa1 cells assessed as survival after 3 days by crystal violet staining
Format: functional, cell-based
run_parameters: HuCC-A1, 72 h
Catalogue of IC50 readings, one per entry.
Respond with the bare value in mg/L.

NC(=S)N/N=C(/c1ccccc1)c1nccc2ccccc12 : 35

Proceed to the following item.
Query :: Give IC50 for COc1cccc2c1C(=O)c1c(O)c3c(c(O)c1C2=O)C[C@@](O)(C(=O)CO)C[C@@H]3O[C@H]1C[C@H](N)[C@H](O)[C@H](C)O1 [DOXORUBICIN]
Result :: 0.35

---

Tested on: MOLT-3
experiment_description: Cytotoxicity against Homo sapiens (human) MOLT3 cells assessed as survival after 3 days by crystal violet staining
Assay type: functional, cell-based
run_parameters: MOLT-3, 72 h
Each entry below carries its recorded IC50.
Hi! Could you send only the number? It should be in µg/mL, unit omitted.

Example results:
COc1ccc(S(=O)(=O)N2CCc3cc(OC)c(OC)cc3C2/C(=N/NC(N)=S)c2ccccc2)cc1 (configuration not stated) : 10.4
NC(=S)N/N=C(\c1ccccc1)C1c2ccccc2CCN1S(=O)(=O)c1ccc([N+](=O)[O-])cc1 (configuration not stated) : 11.3
COc1cc2c(cc1OC)C(/C(=N/NC(N)=S)c1ccccc1)N(S(=O)(=O)c1ccc(Cl)cc1)CC2 (configuration not stated) : 5.03
COc1ccc(S(=O)(=O)N2CCc3ccccc3C2/C(C)=N/NC(N)=S)cc1 (configuration not stated) : 15.6
COc1ccc(S(=O)(=O)N2CCc3cc(OC)c(OC)cc3C2/C(C)=N/NC(N)=S)cc1 (configuration not stated) : 2.13
COc1cc2c(cc1OC)C(/C(=N/NC(N)=S)c1ccccc1)N(S(=O)(=O)c1ccc(C)cc1)CC2 (configuration not stated) : 8.45
C/C(=N\NC(N)=S)C1c2ccccc2CCN1S(=O)(=O)c1ccc([N+](=O)[O-])cc1 (configuration not stated) : 18.2
COc1ccc(S(=O)(=O)N2CCc3ccccc3C2/C(=N/NC(N)=S)c2ccccc2)cc1 (configuration not stated) : 8.44

Query :: Using the record for COc1cc([C@@H]2c3cc4c(cc3[C@@H](O[C@@H]3O[C@@H]5CO[C@@H](C)O[C@H]5[C@H](O)[C@H]3O)[C@H]3COC(=O)[C@H]23)OCO4)cc(OC)c1O [ETOPOSIDE] , state its measured IC50.
Result :: 0.024

Query :: Query IC50 for Cc1ccc(S(=O)(=O)N2CCc3ccccc3C2/C(=N/NC(N)=S)c2ccccc2)cc1 (configuration not stated)
Result :: 7.85

Query :: Dear colleague, please send me the reported IC50 for COc1cc2c(cc1OC)C(/C(C)=N/NC(N)=S)N(S(=O)(=O)c1ccc([N+](=O)[O-])cc1)CC2 (configuration not stated) when you can.
Result :: 42.3

Query :: Hello, please tell me recorded IC50 for this one: C/C(=N\NC(N)=S)C1c2ccccc2CCN1S(=O)(=O)c1ccc(C)cc1 (configuration not stated)
Result :: 19

Query :: Consider the compound C/C(=N\NC(N)=S)C1c2ccccc2CCN1S(=O)(=O)c1cccc([N+](=O)[O-])c1 (configuration not stated) and give its recorded IC50.
Result :: 18.1

Query :: Supply IC50 value. Item: NC(=S)N/N=C(/c1ccccc1)c1nccc2ccccc12
Result :: 0.72
